Measured pKi, listed per entry.
# testedSystem: human 5-HT7B (h5-HT7b) receptors (Homo sapiens, UniProt P34969)
# Construct: expressed in transfected cells
# Sequence (P34969 1-432 limits assumed): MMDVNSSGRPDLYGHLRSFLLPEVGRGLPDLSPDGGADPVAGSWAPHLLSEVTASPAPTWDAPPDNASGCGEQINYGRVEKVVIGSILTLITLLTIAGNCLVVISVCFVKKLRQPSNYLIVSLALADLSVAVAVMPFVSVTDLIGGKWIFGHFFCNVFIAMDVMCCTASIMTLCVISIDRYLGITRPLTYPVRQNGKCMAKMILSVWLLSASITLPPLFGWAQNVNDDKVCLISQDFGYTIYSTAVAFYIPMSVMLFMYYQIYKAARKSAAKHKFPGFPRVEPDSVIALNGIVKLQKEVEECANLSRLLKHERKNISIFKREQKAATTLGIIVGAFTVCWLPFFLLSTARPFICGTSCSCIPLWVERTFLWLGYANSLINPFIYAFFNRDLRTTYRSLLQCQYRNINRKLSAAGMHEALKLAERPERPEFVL
# assayInfo: Competition radioligand binding, h5-HT7b
# measurementSetup: [3H]5-CT; membranes of HEK 293 cells; read-out: Ki 5-HT7
Scale note: pKi = -log10(concentration in M).

Below, 6 molecules whose answers are already recorded.
# molecule, testedSystem, pKi
records = [
    ("N=C(NCCc1ccccc1)NC(=O)N1CCN(Cc2ccccc2)CC1 [Example 61]", "human 5-HT7B (h5-HT7b) receptors (Homo sapiens, UniProt P34969)", 6.31),
    ("CC(=O)Nc1ccc(CN2CCC(CNC(=O)NC(=N)NCc3cccc4ccccc34)CC2)cc1 [Example 70]", "human 5-HT7B (h5-HT7b) receptors (Homo sapiens, UniProt P34969)", 7.80),
    ("CC(O)CNC(=O)NC(=N)NCc1cccc2ccccc12 (stereo not drawn) [Example 30]", "human 5-HT7B (h5-HT7b) receptors (Homo sapiens, UniProt P34969)", 7.89),
    ("COc1ccccc1CN1CCN(C(=O)NC(=N)NCc2cccc3ccccc23)CC1 [Example 5]", "human 5-HT7B (h5-HT7b) receptors (Homo sapiens, UniProt P34969)", 7.59),
    ("N=C(NCc1cccc2ccccc12)NC(=O)NCC1CCN(Cc2ccc([N+](=O)[O-])cc2)CC1 [Example 60]", "human 5-HT7B (h5-HT7b) receptors (Homo sapiens, UniProt P34969)", 7.29),
    ("COc1cccc(CN2CCC(CNC(=O)NC(=N)NCc3cccc4ccccc34)CC2)c1 [Example 58]", "human 5-HT7B (h5-HT7b) receptors (Homo sapiens, UniProt P34969)", 7.64),
]

For this molecule ( CC(=O)Nc1ccc(NC(=O)NC(=N)NCc2cccc3ccccc23)cc1 [Example 1] ), measured pKi is 7.89

Briefly, pKi measured for N=C(NCc1cccc2ccccc12)NC(=O)NCC1CCNCC1 [Example 2] : 7.34

Given item Cc1cc(C)cc(CN2CCC(CNC(=O)NC(=N)NCc3cccc4ccccc34)CC2)c1 [Example 62] , the value recorded as its pKi is 7.66

Source listed as patent US20040044037A1.
